- SYSTEM_UNDER_TEST: Histamine H4 receptor (Mus musculus, UniProt Q91ZY2)
- Sequence (Q91ZY2 whole entry): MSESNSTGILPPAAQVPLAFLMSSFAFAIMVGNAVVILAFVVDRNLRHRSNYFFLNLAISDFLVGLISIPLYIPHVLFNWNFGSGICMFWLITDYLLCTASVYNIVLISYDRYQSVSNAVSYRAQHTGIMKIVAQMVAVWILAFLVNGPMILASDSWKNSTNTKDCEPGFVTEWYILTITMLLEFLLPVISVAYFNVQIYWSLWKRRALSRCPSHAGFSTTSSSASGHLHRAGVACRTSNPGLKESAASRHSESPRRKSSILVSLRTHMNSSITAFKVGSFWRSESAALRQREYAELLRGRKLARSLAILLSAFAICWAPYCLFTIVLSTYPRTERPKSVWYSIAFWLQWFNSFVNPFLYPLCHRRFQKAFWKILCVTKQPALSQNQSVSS
- METHOD_SUMMARY: Agonist activity at mouse H4R expressed on HEK293T cells assessed as inhibition of forskolin-induced CRE-driven luciferase activity co-incubated with forskolin for 6 hrs and measured after 30 mins by luciferase reporter gene assay
PARAMETER: EC50 (nM)

INPUT_SMILES	QUANTITATIVE_RESULT
CCCNC1CN(c2ccnc(N)n2)C1.O.O=C(O)/C=C/C(=O)O	1

----------
- SYSTEM_UNDER_TEST: Histamine H3 receptor (Homo sapiens, UniProt Q9Y5N1)
- Sequence (Q9Y5N1 whole entry): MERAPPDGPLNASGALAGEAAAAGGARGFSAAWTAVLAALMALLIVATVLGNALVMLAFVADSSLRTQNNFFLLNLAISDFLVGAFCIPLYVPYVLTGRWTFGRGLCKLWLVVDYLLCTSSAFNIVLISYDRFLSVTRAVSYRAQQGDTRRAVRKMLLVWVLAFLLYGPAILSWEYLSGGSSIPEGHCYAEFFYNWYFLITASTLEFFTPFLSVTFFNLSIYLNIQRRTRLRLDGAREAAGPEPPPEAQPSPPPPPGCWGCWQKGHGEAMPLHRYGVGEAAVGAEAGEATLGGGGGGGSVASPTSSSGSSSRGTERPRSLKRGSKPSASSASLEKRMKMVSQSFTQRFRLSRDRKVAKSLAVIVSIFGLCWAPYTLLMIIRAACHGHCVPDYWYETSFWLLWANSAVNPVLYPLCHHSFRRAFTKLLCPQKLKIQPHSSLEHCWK
- METHOD_SUMMARY: Displacement of [3H]NAMH from human H3R expressed in HEK293T cells incubated for 2 hrs by microbeta scintillation counting analysis
- Type: cell-based
PARAMETER: Ki (nM)

INPUT_SMILES	SYSTEM_UNDER_TEST	UNITS_OF_MEASURE	QUANTITATIVE_RESULT
CCc1cc(N2CC(N)C2)nc(N)n1	Histamine H3 receptor (Homo sapiens, UniProt Q9Y5N1)	nM	79.4
Nc1nccc(N2CC(N3CCCC3)C2)n1	Histamine H3 receptor (Homo sapiens, UniProt Q9Y5N1)	nM	39.8
CCNC1CN(c2cc(C)nc(N)n2)C1	Histamine H3 receptor (Homo sapiens, UniProt Q9Y5N1)	nM	79.4
CC(C)CNC1CN(c2ccnc(N)n2)C1	Histamine H3 receptor (Homo sapiens, UniProt Q9Y5N1)	nM	39.8
CC(C)NC1CN(c2ccnc(N)n2)C1	Histamine H3 receptor (Homo sapiens, UniProt Q9Y5N1)	nM	39.8

----------
- SYSTEM_UNDER_TEST: Histamine H3 receptor (Homo sapiens, UniProt Q9Y5N1)
- METHOD_SUMMARY: Agonist activity at human H3R expressed on HEK293T cells assessed as inhibition of forskolin-induced CRE-driven luciferase activity co-incubated with forskolin for 6 hrs and measured after 30 mins by CRE-luciferase reporter gene assay
- Format: functional

INPUT_SMILES	EC50
CNC1CN(c2cc(C)nc(N)n2)C1	10 nM
Nc1nccc(N2CC(N3CCCC3)C2)n1	7.94 nM
Cc1cc(N2CC(N)C2)nc(N)n1	15.8 nM
CNC1CN(c2cc(C(C)C)nc(N)n2)C1	12.6 nM
CCNC1CN(c2cc(C)nc(N)n2)C1	12.6 nM
CCN(CC)C1CN(c2ccnc(N)n2)C1	7.94 nM

Numbers sourced from ChEMBL document CHEMBL4354817.
